Test system: MOLT-4 leukemia
Assay: NCI tumour cell line growth inhibition, 48 h
Exercise: for every item that follows, state its recorded TGI.

Below, each entry is followed by its recorded TGI result.
CSc1nc2c(c(=O)[nH]1)N=C(c1ccc([N+](=O)[O-])cc1)CC(c1ccccc1)N2 (centres undefined) : > 100 µM
CN=c1ccc2nc3ccc(N)cc3sc-2c1 : 6.86 µM
N#CC(C#N)=C1NC(=O)CC(=O)N1 : > 100 µM

Continue with the next compound.
Task: Any idea what TGI came out for CC(C)(C)c1cc2c(OC/C=C/c3ccccc3)c(c1)Cc1cc(C(C#N)(OC/C=C/c3ccccc3)OC/C=C/c3ccccc3)cc(c1OC/C=C\c1ccccc1)Cc1cc(C(C)(C)C)cc(c1OC/C=C/c1ccccc1)Cc1cc(C(C#N)(OC/C=C\c3ccccc3)OC/C=C/c3ccccc3)cc(c1OC/C=C\c1ccccc1)C2 (centres undefined) on MOLT-4 leukemia?
Result: > 100 µM

====

Tested on: SW-620 colon
Test: NCI tumour cell line growth inhibition, 48 h
PARAMETER: TGI

CCOC(=O)c1c(C)nc2c1c(CN(C)C)c(O)c1[nH]c(C)c(C)nc12 : 95.2 µM

Go through the list and state TGI for each entry.
1. O=C(CCl)NNC1=Nc2ccc(Cl)cc2SC1
2. CC(C)NCCCn1c(Sc2cc3c(cc2I)OCO3)nc2c(N)ncnc21
3. N#C[C@H](OC1OC(COC2OC(CO)C(O)C(O)C2O)C(O)C(O)C1O)c1ccccc1 (stereo partly specified)
4. CCOC(=O)C1=C(C)N(c2ccc(Cl)cc2)[C@]2(C#N)C(O)=C(Cl)C(Cl)=C(O)[C@]12C#N
5. CC1(O)C=CC(=O)C=C1
6. COC(=O)C1(C)CCc2c(OC)ccc(OC)c2C1=O (stereo unspecified)
7. O=C(O)CN1CCN(CC(=O)O)CC(=O)[O][Hg][O]C(=O)C1

Result:
["4.22 µM", "> 100 µM", "> 250 µM", "> 100 µM", "> 100 µM", "> 100 µM", "52.7 µM"]

====

System: HCT-116 colon
Assay: NCI tumour cell line growth inhibition, 48 h; in the data active = GI50 below about 0.43 µM; inactive = the rest
Respond only with the outcome that fits, drawn from 1 = active, 0 = inactive

Example results:
O=C1C(=C([O-])c2ccccc2)C(=O)c2ccccc21.O=C1C(=C([O-])c2ccccc2)C(=O)c2ccccc21.[Fe+2] : 0
O=C1NC(=O)C(N2C(=O)c3ccccc3C2=O)CC1O (stereo not given) : 0
OCc1ccc(N2CCCC2c2ccccc2)cc1Cl (stereo not given) : 0
COc1cccc(OC(=O)c2ccc(C(F)(F)F)nc2Nc2cc(Cl)ccc2C)c1 : 0

With those in mind, consider the next compound.
Task: Hi team, can someone confirm the assay call for CN1CCN(C(=O)c2cc(-c3ccc4ncnc(N5CCc6cc(F)c(Cl)cc65)c4c3)cnc2N)CC1 ?
Result: 1

====

So I've got a bunch of molecules here, and I need their TGI values.
Tested on: 786-0 renal
Experiment: NCI tumour cell line growth inhibition, 48 h
Answers are plain numbers, in µM.

O=c1ssc(=Nc2ccccc2)n1-c1ccccc1 : 34.6
COC1/C=C/C(C)C(C(C)C(OC)C(C)CCC(=O)C(C)C(C/C=C/N(C)C=O)OC)OC(=O)C=CC2OC2(C)CC(OC)C(OC)C2=CC(=O)O[C@@H](C(C)C(OC)CC(OC)/C=C/C(C)C(O)C1)[C@H]2O (some centres undefined) : 0.0176
COC1C=COC2(C)Oc3c(C)c(O)c4c(c3C2=O)/C(=N/C2CCC(O)OC2C)C=C(NC(=O)/C(C)=C\C(=O)C2CC2C(O)C(C)C(O)C(C)C(OC(C)=O)C1C)C4=O (centres undefined) : 3.13
O=C1/C(=C/c2ccccc2[N+](=O)[O-])Cc2ccccc21 : 6.9
O=C(NN1C(=O)CSC12CCCCC2)c1[nH]c2ccc(Br)cc2c1-c1ccccc1 : 38.9

Pending molecule:
Task: Return reported TGI; argument: O=[N+]([O-])c1cccc2nnccc12
Result: 50.4

====

Test system: NCI-H522 lung
Test: NCI tumour cell line growth inhibition, 48 h
Assignment: determine reported log10 of TGI for the given compounds.
All values: log10 TGI [µM].

Consider the reported log10 of TGI for these compounds:
Cc1ccc(NC(Nc2ccc(C)cc2C)=C(/C=C(\Cl)[N+](=O)[O-])[N+](=O)[O-])c(C)c1 : 0.66
CN1C(=O)N(C)C2C1NN=c1s/c(=C\c3ccc(C(F)(F)F)cc3)c(=O)n12 (centres undefined) : 0.35
CCCCCCCCCCCCCCCCCC[n+]1ccc2c(C)c3c(c(C)c2c1)c1cc(O)ccc1n3CC : 1.26
CCCCCCCCCCCCCCCCCC1=NCCN1CCOC1=C(Cl)C(=O)c2ccccc2C1=O : 0.53
O=C1OCC2OC(=O)c3cc(O)c(O)c(O)c3-c3c(O)c(O)c(O)c4c3C(=O)OC(C2OC(=O)c2cc(O)c(O)c(O)c2-c2c1cc(O)c(O)c2O)C1OC(=O)c2c-4c(O)c(O)c(O)c2[C@@H]1C(O)C(O)C(O)C(O)CO (some centres undefined) : 1.60
CC(C)C[C@H](NC(=O)CNC(=O)c1cc(Cl)ccc1Cl)B1OC(=O)CC(CC(=O)O)(C(=O)O)O1 (some centres undefined) : -1.25
COc1cc(/C=C/c2nc(NC(=S)Nc3ccccc3)nnc2C)cc(OC)c1OC : 1.45
COC1C=COC2(C)Oc3c(C)c(O)c4c(c3C2=O)/C(=N/C2CCC(O)OC2C)C=C(NC(=O)/C(C)=C\C(=O)C2CC2C(O)C(C)C(O)C(C)C(OC(C)=O)C1C)C4=O (centres undefined) : 0.45

Dear reader, for each entry below, please note its log10 of TGI.
1. CC(=O)c1ccc2c(c1)CC1(C2)Cc2cc3c(cc2C1=O)CCC3 (centres undefined)
2. CC1(O)C=CC(=O)C=C1

Result:
[1.92, 1.53]

====

Tested on: SF-539 CNS
Experiment: NCI tumour cell line growth inhibition, 48 h
Decide by TGI: equal to or exceeding 40 µM means Yes, less means No.

OCCNCCN1CCN(CCCN2c3ccccc3Sc3ccc(C(F)(F)F)cc32)CC1 : No
FC(F)(F)c1ccc(-c2cnc(-c3ncon3)nc2NC2CCCCCC2)cc1 : Yes
NNC(=O)CS(=O)(=O)Nc1ncccn1 : Yes
N#Cc1sc2c(c1OC(=O)c1ccccc1)c(=O)n(-c1ccccc1)c(=S)n2-c1ccccc1 : Yes
O=C1NC(=O)C(N2C(=O)c3ccccc3C2=O)CC1O (stereo not given) : Yes

Task: Is the recorded value of TGI equal to or greater than 40 µM for this compound? O=C1c2c(c3c4ccccc4[nH]c3c3ccc4ccccc4c23)C(=O)N1CCN1CCNCC1
Result: No

Task: Check Fc1ccc(/C=N/n2c(-c3ccc(F)c(Cl)c3)nn(CNc3ccccc3C(F)(F)F)c2=S)cc1 too.
Result: Yes

Task: Quick one: CN(C)CCCn1c(=O)c2ccccc2c2ccccc21
Result: No

Task: Do the same for Cc1ccccc1-n1c(=O)c2ncn(C3CCCO3)c2n(-c2ccccc2C)c1=S (stereo not given) please
Result: Yes

====

System: SNB-19 CNS
Experiment: NCI tumour cell line growth inhibition, 48 h
Please respond with reported TGI for every item in the list.
Give bare numbers, in µM.

These recorded examples may help you get a feel for the data.
COc1cc2c(c(OC)c1OC)-c1ccc(SC)c(=O)cc1C(NC(=O)c1ccccc1)CC2 (stereo not given) : 29.1
O=C(CCl)NNC1=Nc2ccc(Cl)cc2SC1 : 26.4

Provide the reported TGI of each entry below, same order.
1. O=C1c2ccccc2-c2cc([N+](=O)[O-])c([N+](=O)[O-])cc21
2. O=C1C=CC2(C=C1)O[C@H](Cc1ccccc1)[C@@H](Cc1ccccc1)O2

Result:
1: 3.36; 2: 6.47

====

System: HCT-116 colon
Experiment: NCI tumour cell line growth inhibition, 48 h
PARAMETER: GI50

Illustrative cases are given below, each with its answer.
CO/N=C(/C)c1ccc(NC(=O)CSc2nnc(-c3ccncc3)n2-c2ccccc2)cc1 : 3.43 µM
O=C(O)CN1CCN(CC(=O)O)CC(=O)[O][Hg][O]C(=O)C1 : 17.9 µM
COc1ccccc1-c1cc(=O)c2cc(C)cnc2[nH]1 : 42.8 µM

Hi! Can you tell me GI50 for each of these molecules?
1. O=C(/C=C/c1cc2ccccc2[nH]c1=O)/C=C/c1cc2ccccc2[nH]c1=O
2. CCc1ccc2c(c1)N(CCO)C1=C(C(=O)OC1)C2c1cccc(Br)c1 (stereo not given)

Result:
1: 1.28 µM; 2: 0.449 µM

====

Tested on: COLO 205 colon
Assay: NCI tumour cell line growth inhibition, 48 h; in the data active = GI50 below about 0.43 µM; inactive = the rest
Allowed answers: active, inactive

OCC1OC(n2cnc3c(N/N=C\c4ccccn4)ncnc32)C(O)C1O (centres undefined) : inactive
O=S(=O)(Nc1cc(Sc2cccc3cccnc23)c(O)c2ccccc12)c1ccc(F)cc1 : inactive
O=C1OCC2=C1C(c1ccccc1)c1cc3c(cc1N2)OCO3 (centres undefined) : active

Task: What did this assay record as the result for CC(=O)/C=C/c1cn(C(=O)OC(C)(C)C)c2ccc(Br)cc12 ?
Result: inactive

Task: What do you get for CNCCCNCCCCNCCCN1C(=O)c2ccc3c4c(ccc(c24)C1=O)C(=O)N(CCCNCc1ccccc1OC)C3=O ?
Result: inactive

Task: Request: O=C1NC(=O)C(N2C(=O)c3ccccc3C2=O)CC1O (centres undefined)
Result: inactive

Task: CN=c1ccc2nc3ccc(N)cc3sc-2c1 , same question.
Result: inactive

Task: Thanks! And CCN(CC)c1ccc2cc(C(=O)Nc3ccc4[nH]c(C(=O)N5C[C@@H](CCl)c6c5cc(OC(=O)Nc5ccccc5)c5[nH]cc(C)c65)cc4c3)oc2c1 ?
Result: inactive

Task: Please give the result for CCOc1ccccc1C(=O)N1CCN(c2cc(Cl)cc(Cl)c2)CC1 too.
Result: active

Task: What about this compound? O=C1/C(=C/c2ccccc2[N+](=O)[O-])Cc2ccccc21
Result: inactive

Task: Could you do the same for CC(=O)OC12C=C(C)C(C(C)C1)C1C(=O)N(CCN3CCOCC3)C(=O)C12 (centres undefined) , please?
Result: inactive

Task: Also COc1cc2c(cc1OCCCn1c(-c3ccccn3)nc3ccccc31)N=C[C@@H]1CCCN1C2=O , if possible.
Result: inactive

Task: Consider next the compound CN1C(=O)N(C)C2C1NN=c1s/c(=C\c3ccc(C(F)(F)F)cc3)c(=O)n12 (centres undefined) in the same way.
Result: inactive

Task: Please do the same for FC(F)(F)c1ccc(-c2cnc(-c3ncon3)nc2NC2CCCCCC2)cc1 as well.
Result: inactive

Task: Please do the same for CO[C@H]1CC(O[C@@H]2/C(C)=C/C[C@@H]3C[C@@H](C[C@]4(C=C[C@H](C)[C@@H](C5CCCCC5)O4)O3)OC(=O)[C@@H]3C=C(C)[C@@H](O)[C@H]4OC/C(=C\C=C\[C@@H]2C)[C@]43O)O[C@@H](C)C1O[C@H]1C[C@H](OC)[C@@H](O)[C@H](C)O1 (some centres undefined) as well.
Result: inactive

Task: # repeat for O=C(/C=C/c1cc2ccccc2[nH]c1=O)/C=C/c1cc2ccccc2[nH]c1=O
Result: inactive

Task: Thanks! And O=C(O)CN1CCN(CC(=O)O)CC(=O)[O][Hg][O]C(=O)C1 ?
Result: inactive

Task: // repeat for N#CC1(C(N)=O)C(c2ccc(Cl)cc2)CC(=O)CC1c1ccc(Cl)cc1 (centres undefined) and report
Result: inactive
